test target: glucose-6-phosphate dehydrogenase-6-phosphogluconolactonase (Plasmodium falciparum 3D7)
procedure text: concentration-dependent PfGluPho enzyme inhibition – biochemical, fluorescence intensity, dose response (AID 504765)
experimental conditions: Recombinant PfG6PD enzyme, fluorescence intensity (NADPH)
The source made the active and inactive calls. How the calls were made is not given here.
Hi there, use one of these labels in your reply, thanks! active, inactive

Test call for this compound, please: Cc1ccc(-c2nc(N3CCOCC3)s[n+]2-c2ccccc2)cc1 active

What was the test verdict on N#Cc1ccc(Oc2cccc3cccnc23)c([N+](=O)[O-])c1 ? active

What call does the record list for CCOC(=O)c1ccc(-n2c(N)c(C(=O)NCC3CCCO3)sc2=S)cc1 (centres undefined) ? inactive

Outcome logged for COc1cc(N)c2ncccc2c1Cl in this assay: active

What did the test return for COc1cc(N=Cc2c(CO)cnc(C)c2O)cc(OC)c1OC ? active

Call for entry Nc1ccc2c3c(cccc13)-c1ccccc1-2 : inactive

Please share the test call associated with Cc1ccc(NC(=O)c2cc(C)n(-c3ccccc3)c2C)cc1 . active

Recorded call for CN(C)c1cccc2c1c(NC(=O)c1ccc(F)cc1)nn2C ? active

Dear all, I need the recorded test outcome for Cc1ccc(NC2=C(NC(=O)c3ccccc3)C(=O)c3ccccc3C2=O)cc1Cl , thank you. active

Status in this test for CC1(C)CC2(CC(c3ccccc3F)c3ccc(O)c(O)c3O2)NC(=S)N1 (centres undefined) ? active

Answer briefly: the call reported for CN(C)c1ccc(C=c2c3cc(O)ccc3n3c2cc(-c2ccccc2)[n+]3C)cc1 in this assay. active

Returns: the outcome recorded for Cc1cc(C)nc(SSc2nc(C)cc(C)n2)n1 in this assay. active

Lab log entry: CN1CCc2cccc3c2[C@H]1Cc1ccc(O)c(O)c1-3 — outcome as called in the assay? active

In this assay, the call recorded for O=C1CCN(c2ccccc2)N1 was what? active

Record request — test call for CC(C)(C)c1ccc(C(=O)Nc2sc3c(c2C(=O)O)CCC3)cc1 active

Look up the recorded call for O=[N+]([O-])c1ccc(-[n+]2ccc3ccccc3c2)c([N+](=O)[O-])c1 in this test. active

// return assay outcome for O=C(CN1CCN(c2ccc(O)cc2)CC1)Nc1cc(S(=O)(=O)N2CCOCC2)ccc1Cl inactive

Per the assay record, what outcome was assigned to Oc1ccc(C2C[C@H]3CC[C@@H]2C3)cc1O (some centres undefined) ? active

Please let me know the test result on file for C/C(Cn1nnc([N+](=O)[O-])n1)=N\NC(=O)c1ccccc1O . active

Short answer needed: outcome of this test for Cc1ccc(S(=O)(=O)Nc2nc(C)c(C(=O)N/N=C/c3ccccc3)s2)cc1 ? active

Could you kindly confirm the outcome this assay logged for O=[N+]([O-])c1ccc(Sc2cccc3cccnc23)c2cccnc12 ? active

# outcome recorded in this test, key = CCN1/C(=C/C=C/C=C/C=C/c2sc3ccccc3[n+]2CC)Sc2ccccc21 active

# lookup: test call for O=C(CCl)NCCN1C(=O)S/C(=C\c2cccnc2)C1=O active

Outcome logged for O=C(CSc1nc2ccc(Cl)cc2[nH]1)NC1CCCc2ccccc21 (centres undefined) in this assay: active

Give the logged outcome of this assay for the following compound: COc1ccccc1N1CSC2=C(C#N)C(c3ccc(SC)cc3)CC(=O)N2C1 (centres undefined) active

// outcome(item) with item = Nc1c(C(=O)Nc2ccc(F)cc2)sc(=S)n1-c1ccccc1F active

In this assay, the call recorded for O=c1c2ccccc2sn1-c1nccs1 was what? active

Called result for Cc1ccc(/C=C/C(=O)NCCc2cccc(Cl)c2)o1 active

Identify the outcome logged in this assay for the compound shown: O=C(Nc1ccc(N2CCN(C(=O)c3ccco3)CC2)c(Cl)c1)c1cc2ccccc2o1 active
